All figures here come from PubChem BioAssay.

Test: probe aNog binding to arrayed compounds – biochemical, biotinylated probe, 635/667 nm fluorescence, primary screen (AID 1115);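 further: probe is biotinylated aNog protein used at 0.15 µg/mL for 1 h at 4 C; z-score combines 667 nm fluorescence of each spot with its signal to noise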
Details: small-molecule microarray, higher = more signal
measurement_kind: composite z-score
Please reply with the value in numeric form only.

Name the recorded composite z-score for CCC1=C2CN(Cc3ccccc3)[C@@H](C(=O)Cc3ccccc3)C2C=CCC1 (stereo partly specified) .
-0.185

Name the recorded composite z-score for [N-]=[N+]=Nc1ccccc1C[C@]1(C(=O)NCC(O)CO)COC(c2ccc(OCCCO)cc2)=N1 (stereo partly specified) .
-0.236

Name the recorded composite z-score for COc1cc(C(O)C2C=CC3C(=O)N(C)C(=O)C3N2Nc2ccccc2)cc(OC)c1OC (stereo unspecified) .
2.22

Name the recorded composite z-score for COc1ccc(C(=O)Nc2ccc(CN3C(=O)[C@]4(O[C@H](CC(=O)N5Cc6ccccc6C[C@H]5CO)[C@@H]([Si](C)(C)c5ccc(OC)cc5)[C@@H]4C)c4ccccc43)cc2)cc1 .
-0.31

Name the recorded composite z-score for C=CCC(OC(C)=O)[C@@H]1[C@@H](N(Cc2ccc(-c3cccc(C(F)(F)F)c3)o2)C(=O)c2ccc(-c3ccccc3)cc2)c2cc(OCCCO)ccc2N1C(=O)Cc1ccc2ccccc2c1 (stereo partly specified) .
-0.144

Name the recorded composite z-score for O=C1C2C=CC(C(O)c3cccc(O)c3)N(Nc3ccc([N+](=O)[O-])cc3)C2C(=O)N1c1ccccc1 (stereo unspecified) .
-0.163
